- assay.overview: soluble on expression in E. coli; label from the status in PepcDB or PDB records
endpoint: soluble on expression in E. coli

Please review the entries below; each comes with its answer.
residue.string | soluble on expression in E. coli
MKKERVDVLAFNQGLFETREKAKRSVMAGLVYNDKNERLDKPGEKISVETPLHTKGQVMPYVSRGGLKLEKALNVFAINVQGKTMLDIGSSTGGFTDVALQNGARLSYALDVGYNQLAWKIRQDERVVVMERTNFRYSKPEDFTEGVPDIATIDVSFISLRLILPPLHDILKKGGSVVALIKPQFEAGKEFVGKKGIVRDPETHQMVVEEITRFAMNNGYDVKNLDFSPITGGEGNIEFLAHLVSVEGEGSYQAPESIEEVVAHAHQKLAE | not soluble
MKRHYLFSICILTLLLLAACGSSATEDHELEVPEDQETIEIDGEEEDSSQPVFSDEEALVVDDLLEEESRGEEATEHSEPIEEDTSTPSEASGSENVEETEQQPADENNQAFALNVKKFKLELEWQDGDELEMEYEQKKNEKGKAKVEWDGAHKEKMSGKQAVEWMEDFLSQLDLSEGTNSDRLKSQVYAILDIDPSEVEELDLEIEFFDMAGDPLEHHHHHH | not soluble
MGSDKIHHHHHHMIVVLKPGSTEEDIRKVVKLAESYNLKCHISKGQERTVIGIIGDDRYVVADKFESLDCVESVVRVLKPYKLVSREFHPEDTVIDLGDVKIGNGYFTIIAGPCSVEGREMLMETAHFLSELGVKVLRGGAYKPRTSPYSFQGLGEKGLEYLREAADKYGMYVVTEALGEDDLPKVAEYADIIQIGARNAQNFRLLSKAGSYNKPVLLKRGFMNTIEEFLLSAEYIANSGNTKIILCERGIRTFEKATRNTLDISAVPIIRKESHLPILVDPSHSGGRRDLVIPLSRAAIAVGAHGIIVEVHPEPEKALSDGKQSLDFELFKELVQEMKKLADALGVKVN | soluble
MASFITRAERSGNIFSRVTGLIRAGQLNWADRPLWYDVYVSSPPLTPPDWNVKLAKYDEPIRSIFYEEDVLRAKFYKTYRSTAGIQVDSSRTSVSQQFINEYKLVKSENAEATDDQLFEMTQKRLNENGIVLK | not soluble
TSTDWKEAKSFLKGLSDKQREEHYFCKDFVRLKKIPTWKEMAKGVAVKVEEPRYKKDKQLNEKISLLRSDITKLEVDAIVNAANSSLLGGGGVDGCIHRAAGPLLTDECRTLQSCKTGKAKITGGYRLPAKYVIHTVGPIAYGEPSASQAAELRSCYLSSLDLLLEHRLRSVAFPCISTGVFGYPCEAAAEIVLATLREWLEQHKDKVDRLIICVFLEKDEDIYRSRLPHYFPVA | soluble
MQDLSAVKAFHALCQHKSLTAAAKALEQPKSTLSRRLAQLEEDLGQSLLMRQGNRLTLTKAGEVFAVYSEQLLELANKSQEALQELNNQVTGELTLVVHPNLIRGWLSQVLDEFMQQHSTLKIRLLSQFQHSDEVFEPDLIIWIEHAAPMGYRKERLGYWRYAAYASPKYLAHRDKPTHPRELIHHPWIDFIACRRAELELHHPEFGSYSLPALESRLQSDNLAMQADAIAKGRGIGLLPTWFANGFETAHPGSLIPCVNGWQSQPTEINCFYPLGRHPLRLRLFIDALRQARPDEWQ | not soluble
MMMGEVQSLPSCGLHPRLLDALTLALAARPQEKAPGRYELQGDNVFMNVMQLTTQMPAEKKAELHEQYIDIQLLLTGVERIAFGMSGAARQCEEMHVEEDYQLCSQIVDEQTITLQAGMFAVFMPGEPHKPGCAVGEPDDIKKVVVKVRASLLAA | not soluble
MGSDKIHHHHHHMFKRETKDFINIDPLQTGGKLTEEARQALLEWGDGYSVCDFCTTGRLDEIKTPPIHDFIHNQLPKFLGCDVARVTNGAREAKFAVMHSLAKKDAWVVMDENCHYSSYVAAERAGLNIALVPKTDYPDYAITPENFAQTIEETKKRGEVVLALITYPDGNYGNLPDVKKIAKVCSEYDVPLLVNGAYAIGRMPVSLKEIGADFIVGSGHKSMAASGPIGVMGMKEEWAEIVLRRSEKYKNKEVELLGCTARGATIITLMASFPHVRERIKRWDEEVEKARRFAAEMEKLGIKQLGDNPHNHDLMFFHAEVLYEISKKAKGGRFFLYRELKSRKIHGIKPGLTRYFKLSTYGLSDEEVDYVLNAFKEIIEKYS | not soluble
MDLSNRTVLIVGGTSGIGRELARRFAAAGSTVAVGGRSPEALSELAGEGFGTISIDVTDSASVASARDAVLARYPELDTVVTMPGIMLLEDLRDPAHFEAAATTIDTNLVGTIRVIDAFTPHLVRRGAGTFITVTSGIAFLPFPPMPTYAASKAAVHAYSEALRAQLDGTGVSVVELVPPAVATAGQEKVNPHALPLDDFATEVVQLLSEDPTPREILVKAALMHRWAERDGTYDDLVAQRSQALAMLPSREG | not soluble
MKLAARVESVSPSMTLIIDAKAKAMKAEGIDVCSFSAGEPDFNTPKHIVEAAKAALEQGKTRYGPAAGEPRLREAIAQKLQRDNGLCYGADNILVTNGGKQSIFNLMLAMIEPGDEVIIPAPFWVSYPEMVKLAEGTPVILPTTVETQFKVSPEQIRQAITPKTKLLVFNTPSNPTGMVYTPDEVRAIAQVAVEAGLWVLSDEIYEKILYDDAQHLSIGAASPEAYERSVVCSGFAKTYAMTGWRVGFLAGPVPLVKAATKIQGHSTSNVCTFAQYGAIAAYENSQDCVQEMLAAFAERRRYMLDALNAMPGLECPKPDGAFYMFPSIAKTGRSSLDFCSELLDQHQVATVPGAAFGADDCIRLSYATDLDTIKRGMERLEKFLHGIL | soluble

Prompt line: # get_value(readout='soluble on expression in E. coli', item= `NSVLFPCKYASSGCEITLPHTEKAEHEELCEFRPYSCPCPGASCKWQGSLDAVMPHLMHQHKSITTLQGEDIVFLATDINLPGAVDWVMMQSCFGFHFMLVLEKQEKYDGHQQFFAIVQLIGTRKQAENFAYRLELNGHRRRLTWEATPRSIHEGIATAIMNSDCLVFDTSIAQLFAENGNLGINVTISMC` )
Response line: soluble
